# System: primary human hepatic stellate cells (donor 1)
# assayComment: scaled lipid accumulation score (0 = DMSO-like, 1 = nortriptyline-like); higher = stronger HSC inactivation (lipid re-accumulation), active = hit call of the paper
# conditionContext: library stock concentration: 1 mM; 48 h
The campaign covered roughly 5,800 compounds. About 620 (11%) showed activity. What follows is part of a selection rich in actives, with near analogues and random picks from the rest.
metricName: scaled lipid accumulation score

A selection of reference data follows.
Documented scaled lipid accumulation score of CCCCC[C@H](O)/C=C/[C@@H]1[C@@H](C/C=C\CCCC(=O)O)[C@@H](O)C[C@@H]1O [9a,11b-Prostaglandin F2] : ≤ -0.021 (inactive)

Documented scaled lipid accumulation score of CCCCC[C@H](O)/C=C/[C@@H]1[C@@H](C/C=C\CCCC(=O)O)[C@@H](O)C[C@@H]1O [11.beta.-Prostaglandin F2.alpha.] : ≤ 0 (inactive)

Documented scaled lipid accumulation score of CCCCCC#CCC#CCC#CCC#CCCCC(=O)O [5,8,11,14-Eicosatetraynoic acid] : ≤ -0.021 (inactive)

Documented scaled lipid accumulation score of O=C(CCCC[C@@H]1SC[C@@H]2NC(=O)N[C@@H]21)NCCCC[C@H](NC(=O)CCN1C(=O)C=CC1=O)C(=O)O [3-(N-Maleimidopropionyl)-biocytin] : ≤ 0 (inactive)

Documented scaled lipid accumulation score of CCCCC/C=C/C=C1/C=CC(=O)[C@@H]1CCCCCCC(=O)O [15-deoxy-.DELTA.12,14-Prostaglandin A1] : ≤ 0 (inactive)

New cases:
Documented scaled lipid accumulation score of CCCCCCCCCCCCCCCCOC[C@H](COP(=O)([O-])OCCCCCC[N+](C)(C)C)OC(C)=O [Hexanolamino PAF C-16] : ≤ 0 (inactive)

Documented scaled lipid accumulation score of CC#CCC(C)[C@H](O)/C=C/[C@@H]1[C@H]2C/C(=C/CCCC(=O)O)C[C@H]2C[C@H]1O (stereo partly drawn) [5-cis Iloprost] : 0.135 (inactive)

###

# Test system: primary human hepatic stellate cells (donor 1)
# assayComment: scaled lipid accumulation score (0 = DMSO-like, 1 = nortriptyline-like); higher = stronger HSC inactivation (lipid re-accumulation), active = hit call of the paper
# conditionContext: library stock concentration: 80 uM; 48 h
The campaign covered roughly 5,800 compounds. About 620 (11%) showed activity. Many of the other results were omitted from the sample, so actives are more common in it than they were.
Each record here notes measured scaled lipid accumulation score.

A selection of reference data follows.
Documented scaled lipid accumulation score of CO[C@H]1C[C@@H]2CC[C@@H](C)[C@@](O)(O2)C(=O)C(=O)N2CCCC[C@H]2C(=O)O[C@H]([C@H](C)C[C@@H]2CC[C@@H](O)[C@H](OC)C2)CC(=O)[C@H](C)/C=C(\C)[C@@H](O)[C@@H](OC)C(=O)[C@H](C)C[C@H](C)/C=C/C=C/C=C/1C : ≤ 0 (inactive)

Documented scaled lipid accumulation score of O=C(c1cc(Cc2n[nH]c(=O)c3ccccc23)ccc1F)N1CCN(C(=O)C2CC2)CC1 : ≤ -0.0005 (inactive)

Documented scaled lipid accumulation score of Cc1cnc(Nc2ccc(OCCN3CCCC3)cc2)nc1Nc1cccc(S(=O)(=O)NC(C)(C)C)c1 : 0.07 (inactive)

Documented scaled lipid accumulation score of Cc1ccc(F)c(NC(=O)Nc2ccc(-c3cccc4[nH]nc(N)c34)cc2)c1 : 0.001 (inactive)

Documented scaled lipid accumulation score of CC(C)S(=O)(=O)Nc1ccc(F)c(C(=O)c2c[nH]c3ncc(-c4cccnc4)cc23)c1F : ≤ 0 (inactive)

Documented scaled lipid accumulation score of O=C(Nc1cccc(Nc2ncc(Br)c(NCCc3cnc[nH]3)n2)c1)N1CCCC1 : ≤ 0 (inactive)

New cases:
Documented scaled lipid accumulation score of COC(=O)c1ccc2c(C(=Nc3ccc(N(C)C(=O)CN4CCN(C)CC4)cc3)c3ccccc3)c(O)[nH]c2c1 : 0.316 (inactive)
